Tested on: Staphylococcus epidermidis
Test: In vitro antimicrobial activity against Staphylococcus epidermidis.
Format: functional
Observable: MIC

Example cases with answers are listed next.
Recorded MIC (compound "CCCOc1c2cccc1Cc1cc3cc(c1OCCC)Cc1cccc(c1OCCC)Cc1cc(cc(c1OCCC)C2)C(=O)N[C@@H](C)C(=O)NCCNCCNC(=O)[C@H](C)NC3=O" ): 4 µg/mL

Recorded MIC (compound "CCCOc1c2cccc1Cc1cc3cc(c1OCCC)Cc1cccc(c1OCCC)Cc1cc(cc(c1OCCC)C2)C(=O)N[C@H](C)C(=O)NCCNCCNC(=O)[C@@H](C)NC3=O" ): 8 µg/mL

Recorded MIC (compound "CCCOc1c2cccc1Cc1cc3cc(c1OCCC)Cc1cccc(c1OCCC)Cc1cc(cc(c1OCCC)C2)C(=O)N[C@@H](C)C(=O)NCCN(C(=O)OC(C)(C)C)CCNC(=O)[C@H](C)NC3=O" ): 32 µg/mL

Here's the next entry for you.
Recorded MIC (compound "CCCOc1c2cccc1Cc1cc3cc(c1OCCC)Cc1cccc(c1OCCC)Cc1cc(cc(c1OCCC)C2)C(=O)N[C@@H](C)C(=O)N[C@@H](C)C(=O)NCCNCCNC(=O)[C@H](C)NC(=O)[C@@H](C)NC3=O" ): 32 µg/mL

====

Tested on: Staphylococcus aureus
Assay: In vitro antimicrobial activity against penicillin sensitive Staphylococcus aureus 663.
Type: functional
MIC: recorded values
Include the unit after the number when you answer.

Recorded MIC (molecule "CCCOc1c2cccc1Cc1cc3cc(c1OCCC)Cc1cccc(c1OCCC)Cc1cc(cc(c1OCCC)C2)C(=O)N[C@@H](C)C(=O)NCCN(C(=O)OC(C)(C)C)CCNC(=O)[C@H](C)NC3=O" ): 64 µg/mL

Next:
Recorded MIC (molecule "CCCOc1c2cccc1Cc1cc3cc(c1OCCC)Cc1cccc(c1OCCC)Cc1cc(cc(c1OCCC)C2)C(=O)N[C@@H](C)C(=O)NCCNCCNC(=O)[C@H](C)NC3=O" ): 8 µg/mL

Recorded MIC (molecule CCCOc1c2cccc1Cc1cc3cc(c1OCCC)Cc1cccc(c1OCCC)Cc1cc(cc(c1OCCC)C2)C(=O)N[C@@H](C)C(=O)N[C@@H](C)C(=O)NCCNCCNC(=O)[C@H](C)NC(=O)[C@@H](C)NC3=O [VANCOMYCIN MIMIC] ): 32 µg/mL

Recorded MIC (molecule "CCCOc1c2cccc1Cc1cc3cc(c1OCCC)Cc1cccc(c1OCCC)Cc1cc(cc(c1OCCC)C2)C(=O)N[C@H](C)C(=O)NCCNCCNC(=O)[C@@H](C)NC3=O" ): 8 µg/mL

====

System: Staphylococcus aureus
Test: In vitro antimicrobial activity against penicillin resistant Staphylococcus aureus 853.
Type: functional
Observable: MIC (µg/mL)
Report the figure in µg/mL without appending any unit label.

Recorded MIC (compound "CCCOc1c2cccc1Cc1cc3cc(c1OCCC)Cc1cccc(c1OCCC)Cc1cc(cc(c1OCCC)C2)C(=O)N[C@@H](C)C(=O)N[C@@H](C)C(=O)NCCNCCNC(=O)[C@H](C)NC(=O)[C@@H](C)NC3=O" ): 32

Recorded MIC (compound "CCCOc1c2cccc1Cc1cc3cc(c1OCCC)Cc1cccc(c1OCCC)Cc1cc(cc(c1OCCC)C2)C(=O)N[C@@H](C)C(=O)NCCNCCNC(=O)[C@H](C)NC3=O" ): 16

Next:
Recorded MIC (compound "CCCOc1c2cccc1Cc1cc3cc(c1OCCC)Cc1cccc(c1OCCC)Cc1cc(cc(c1OCCC)C2)C(=O)N[C@H](C)C(=O)NCCNCCNC(=O)[C@@H](C)NC3=O" ): 8
